Target: hTREM2 (Homo sapiens, UniProt Q9NZC2)
Sequence (Q9NZC2 19-230): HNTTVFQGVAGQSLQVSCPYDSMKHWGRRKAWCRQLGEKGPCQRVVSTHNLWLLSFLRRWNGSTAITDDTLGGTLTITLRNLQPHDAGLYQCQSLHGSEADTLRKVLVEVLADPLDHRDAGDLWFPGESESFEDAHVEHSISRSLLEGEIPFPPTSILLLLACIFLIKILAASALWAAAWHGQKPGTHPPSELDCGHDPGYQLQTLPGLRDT
Sequence (O43914 22-113 partner): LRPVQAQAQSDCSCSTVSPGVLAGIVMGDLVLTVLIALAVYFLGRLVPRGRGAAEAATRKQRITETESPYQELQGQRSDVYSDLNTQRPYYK
Assay: Phospho-Syk AlphaScreen/AlphaLISA assay in TREM2 and DAP12 overexpressing HEK293 cells (Example A1)
Assay type: cell-based
Design: expressed in transfected cells
Settings: HEK293 cells
Property Label: Emax

Example entries and their recorded answers appear below.
Cc1cc([C@@H]2CN(c3cc4nc(C)n(C)c(=O)c4c(-c4ccc(Cl)cc4F)n3)CCO2)ccn1 : +++ (Emax>200 and ≤300)
Cc1nc2cc(N3CCO[C@@H](c4cnn(C)c4)C3)nc(C3CCCCC3)c2c(=O)n1C : +++ (Emax>200 and ≤300)
Cc1ccc(C2CC(c3cc4nc(C)n(C)c(=O)c4c(-c4ccc(Cl)cc4F)n3)CCO2)cn1 (centres unmarked) : +++ (Emax>200 and ≤300)
Cc1nc2cc(N3CCO[C@H](c4cnn(C)c4)C3)nc(-c3ccc(Cl)cc3F)c2c(=O)n1C [Example 189] : ++++ (Emax>300)
Cc1nc2cc(C3=CC(c4cnn(C)c4)OCC3)nc(-c3ccc(Cl)cc3F)c2c(=O)n1C (racemic) : +++ (Emax>200 and ≤300)
CCCn1c(C)nc2cc(N3CCO[C@H](C(F)(F)F)C3)nc(-c3ccc(Cl)cc3F)c2c1=O : ++++ (Emax>300)

Batch of 4 compounds: report Emax for each.
1. Cc1nc2cc(N3CCO[C@@H](c4cnn(C)c4)C3)nc(-c3cc(F)c(F)cc3F)c2c(=O)n1C
2. Cc1ccc([C@@H]2C[C@H](c3cc4nc(C)n(C)c(=O)c4c(-c4ccc(Cl)cc4F)n3)CCO2)cn1
3. Cc1noc([C@@H]2CCCN(c3cc4nc(C)n(C)c(=O)c4c(-c4ccc(Cl)cc4F)n3)C2)n1 (single isomer, unassigned)
4. Cc1nc2cc(N3CC[C@H](C4CC4)C3)nc(-c3ccc(Cl)cc3F)c2c(=O)n1C

++++ (Emax>300)
++++ (Emax>300)
++++ (Emax>300)
++ (Emax>100 and ≤200)

Batch of 3 compounds: report Emax for each.
1. Cc1nc2cc(N3CCO[C@H](c4cccnc4)C3)nc(-c3ccc(Cl)cc3F)c2c(=O)n1C (single isomer, unassigned) [Example 47]
2. Cc1ncc([C@H]2CN(c3cc4nc(C)n(C)c(=O)c4c(-c4ccc(Cl)cc4F)n3)CCO2)cn1 (single isomer, unassigned)
3. Cc1nc2cc(N3CCC[C@@H](c4cn[nH]c4)C3)nc(-c3ccc(Cl)cc3F)c2c(=O)n1C (single isomer, unassigned)

++++ (Emax>300)
++ (Emax>100 and ≤200)
++++ (Emax>300)

Every entry's value here was drawn from patent US20250388574A1.
